pIC50: −log10 of the molar value.
Consider the following compounds; for each one, report its pIC50.

Value sought: pIC50, system KAT6A (Homo sapiens, UniProt Q92794), item `Cc1cccc(-c2ccc(F)c(C(=O)NNS(=O)(=O)c3ccccc3)c2)c1` . Result: ≥ 5.00

Value sought: pIC50, system KAT6A (Homo sapiens, UniProt Q92794), item Cc1cc(-c2cccc(F)c2)cc(C(=O)NNS(=O)(=O)CC2CCCN(C(=O)C(C)(C)C)C2)c1F (stereo not drawn) . Result: ≥ 5.00

Value sought: pIC50, system KAT6A (Homo sapiens, UniProt Q92794), item Cc1c(-c2ccccc2)ccc(F)c1C(=O)NNS(=O)(=O)CC(Cc1ccccc1)C(C)C (stereo not drawn) . Result: 4.30 to 5.00

Value sought: pIC50, system KAT6A (Homo sapiens, UniProt Q92794), item `CCc1cc(Cl)c(F)c(C(=O)NNS(=O)(=O)C2CCOCC2)c1` . Result: < 4.00

Value sought: pIC50, system KAT6A (Homo sapiens, UniProt Q92794), item Cc1cc(-c2ccccc2)cc(C(=O)NNS(=O)(=O)C2CCCN(C(C)C)C2)c1F (stereo not drawn) . Result: 4.00 to 4.30

Value sought: pIC50, system KAT6A (Homo sapiens, UniProt Q92794), item Cc1cc(-c2ccccc2)cc(C(=O)NNS(=O)(=O)C2CCN(Cc3ccccc3)C2)c1F (stereo not drawn) . Result: 4.30 to 5.00

====

Consider the following compounds; for each one, report its IC50.

Value sought: IC50, system KAT5 (Homo sapiens), item `COc1cccc(S(=O)(=O)NNC(=O)c2ccccc2F)c1` . Result: > 100 µM

Value sought: IC50, system KAT5 (Homo sapiens), item `O=S(=O)(NNc1n[nH]c2ccccc12)c1ccccc1` . Result: > 100 µM

Value sought: IC50, system KAT5 (Homo sapiens), item `O=C(NNS(=O)(=O)c1ccccc1)c1c(F)ccc(-c2ccccn2)c1F` . Result: 50 to 100 µM

Value sought: IC50, system KAT5 (Homo sapiens), item Cc1cc(-c2ccccc2)cc(C(=O)NNS(=O)(=O)CC2CCCN(C(=O)CCN(C)C(=O)OC(C)(C)C)C2)c1F (stereo not shown) . Result: ≤ 10 µM

====

Dear all, this message contains pIC50 results, target or system KAT6A (Homo sapiens).
pIC50: −log10 of the molar value.

pIC50 reading for `COc1ccc(C(=O)NNS(=O)(=O)c2ccccc2)cc1` : < 4.00

pIC50 reading for CC(=O)N1CCCC(CS(=O)(=O)NNC(=O)c2cc(-c3cccc(F)c3)cc(C)c2F)C1 (stereo not shown) : ≥ 5.00

pIC50 reading for O=C(NNC(c1ccccc1)C(F)(F)F)c1ccccc1F (stereo not shown) : < 4.00

pIC50 reading for `Cc1cc(-c2cccc(F)c2Cl)cc(C(=O)NNS(=O)(=O)CC2CCCCC2)c1F` : 4.30 to 5.00

pIC50 reading for `O=C(NNS(=O)(=O)c1ccccc1)c1cc(-c2ccccc2)cc2[nH]ccc12` : 4.00 to 4.30

pIC50 reading for COCCN1CCCC(C(C)S(=O)(=O)NNC(=O)c2cc(-c3ccccc3)cc(C)c2F)C1 (stereo not shown) : 4.30 to 5.00

pIC50 reading for Cc1cc(-c2cccc(F)c2)cc(C(=O)NNS(=O)(=O)CC2CCCN(C(=O)CCN(C)C)C2)c1F (stereo not shown) : 4.30 to 5.00

pIC50 reading for `Cn1nc(NNS(=O)(=O)c2ccccc2)c2cccc(-c3ccccc3)c21` : < 4.00

pIC50 reading for `COc1cc(Cl)c(F)c(C(=O)NNS(=O)(=O)C2CCOCC2)c1` : < 4.00

pIC50 reading for Cc1cc(-c2ccccc2)cc(C(=O)NNS(=O)(=O)C2CCN(C(=O)c3ccccc3)C2)c1F (stereo not shown) : ≥ 5.00

pIC50 reading for `Cc1cc(-c2cccc(OCCN(C)C)c2)cc(C(=O)NNS(=O)(=O)c2ccccc2)c1F` : 4.30 to 5.00

pIC50 reading for `Cc1cc(-c2ccccc2)cc(C(=O)NNS(=O)(=O)c2cccc(F)c2)c1F` : ≥ 5.00

pIC50 reading for `O=S(=O)(Nc1ncc(-c2cc(-c3ccccc3)ccc2F)[nH]1)c1ccccc1` : < 4.00

pIC50 reading for `Cc1cccc(-c2ncc(C(=O)Nc3ccccc3)[nH]2)c1F` : ≥ 5.00

pIC50 reading for Cc1cc(-c2ccccc2)cc(C(=O)NNS(=O)(=O)C2CCN(Cc3ccc(Cl)cc3)C2)c1F (stereo not shown) : 4.30 to 5.00

pIC50 reading for `COCC(=O)N1CC(CS(=O)(=O)NNC(=O)c2cc(-c3ccccc3)cc(C)c2F)C1` : ≥ 5.00
